These measurements were taken from patent US8871753B2.

molecular target: TYK2 (Homo sapiens, UniProt P29597); assay: TYK2 kinase inhibition (Table A1); format: biochemical; details: Table B1
Sequence (P29597 whole entry): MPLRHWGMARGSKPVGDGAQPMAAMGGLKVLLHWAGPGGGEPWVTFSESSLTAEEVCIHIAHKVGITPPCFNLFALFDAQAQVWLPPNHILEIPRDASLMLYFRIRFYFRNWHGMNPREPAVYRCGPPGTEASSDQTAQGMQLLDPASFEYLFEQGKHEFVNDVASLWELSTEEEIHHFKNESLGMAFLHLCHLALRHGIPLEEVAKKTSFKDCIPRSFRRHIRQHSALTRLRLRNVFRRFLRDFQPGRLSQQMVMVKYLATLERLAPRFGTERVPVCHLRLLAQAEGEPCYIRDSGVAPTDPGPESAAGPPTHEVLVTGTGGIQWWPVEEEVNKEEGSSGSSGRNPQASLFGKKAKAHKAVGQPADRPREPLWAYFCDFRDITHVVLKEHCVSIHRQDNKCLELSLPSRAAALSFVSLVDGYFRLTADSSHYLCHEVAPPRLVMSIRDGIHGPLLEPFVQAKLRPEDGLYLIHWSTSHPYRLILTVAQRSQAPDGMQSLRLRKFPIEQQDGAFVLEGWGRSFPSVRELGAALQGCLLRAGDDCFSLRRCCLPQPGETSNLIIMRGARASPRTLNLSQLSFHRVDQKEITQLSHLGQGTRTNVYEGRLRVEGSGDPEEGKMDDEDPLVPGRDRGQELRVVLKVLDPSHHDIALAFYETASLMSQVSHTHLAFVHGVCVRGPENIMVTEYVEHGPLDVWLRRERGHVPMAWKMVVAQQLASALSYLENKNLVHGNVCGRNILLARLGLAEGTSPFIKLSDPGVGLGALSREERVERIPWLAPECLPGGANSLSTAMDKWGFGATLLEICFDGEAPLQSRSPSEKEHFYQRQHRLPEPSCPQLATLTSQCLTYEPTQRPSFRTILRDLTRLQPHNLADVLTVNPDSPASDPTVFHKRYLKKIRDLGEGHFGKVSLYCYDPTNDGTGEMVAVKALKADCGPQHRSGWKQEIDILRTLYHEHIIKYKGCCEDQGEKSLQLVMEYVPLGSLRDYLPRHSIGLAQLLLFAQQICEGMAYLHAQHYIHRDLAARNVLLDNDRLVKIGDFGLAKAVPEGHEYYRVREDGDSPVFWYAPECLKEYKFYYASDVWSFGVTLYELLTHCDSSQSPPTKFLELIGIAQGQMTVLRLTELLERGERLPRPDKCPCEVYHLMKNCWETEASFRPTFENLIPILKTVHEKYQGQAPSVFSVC
Structures can show the parent of a compound that is named as a salt.
PROPERTY LABEL: pIC50
The read-out pIC50 is expressed as -log10 of concentration in moles per litre.

Solved cases (2 shown):
>  <COMPOUND>
O=C(NCCO)Nc1ccc2cc1CCc1cccc(c1)Nc1ncc(Cl)c(n1)N2 [Example B241, trifluoroacetate]

>  <pIC50>
8.46

$$$$
>  <COMPOUND>
CC(=O)Nc1ccc2cc1CCc1cccc(c1)Nc1ncc(Cl)c(n1)N2 [Example B26, trifluoroacetate]

>  <pIC50>
7.82

$$$$

Inquiry: Record O=C(NCc1ccncc1)Nc1ccc2cc1CCc1cccc(c1)Nc1ncc(Cl)c(n1)N2 : what is its pIC50 with TYK2 (Homo sapiens, UniProt P29597)?
Reply text: 8.47

Inquiry: Record O=C(Nc1cccc(Cl)c1)Nc1ccc2cc1CCc1cccc(c1)Nc1ncc(Cl)c(n1)N2 [Example B85, trifluoroacetate] : what is its pIC50 with TYK2 (Homo sapiens, UniProt P29597)?
Reply text: 8.66

====

molecular target: UniProt P29597; assay: TYK2 kinase inhibition (Table A1); assay type: biochemical; details: Table B1
Counter-ions that a name gives are not always drawn.
PROPERTY LABEL: pIC50
The read-out pIC50 is expressed as -log10 of concentration in moles per litre.

Solved cases (2 shown):
>  <MOLECULE>
CCc1ccccc1NC(=O)Nc1ccc2cc1CCc1cccc(c1)Nc1ncc(Cl)c(n1)N2 [Example B97, trifluoroacetate]

>  <ASSAYED SYSTEM>
UniProt P29597

>  <pIC50>
7.80

$$$$
>  <MOLECULE>
O=C(NCc1ccco1)Nc1ccc2cc1CCc1cncc(c1)Nc1ncc(Cl)c(n1)N2 [Example B134, bis(trifluoroacetate)]

>  <ASSAYED SYSTEM>
UniProt P29597

>  <pIC50>
8.55

$$$$

Inquiry: What value of pIC50 has been reported for the following molecule? CN(C)S(=O)(=O)NCCNC(=O)Nc1ccc2cc1CCc1cccc(c1)Nc1ncc(Cl)c(n1)N2 [Example B328, trifluoroacetate]
Reply text: 8.15

Inquiry: What value of pIC50 has been reported for the following molecule? N#Cc1cccnc1N1CCN(C(=O)Nc2ccc3cc2CCc2cncc(c2)Nc2ncc(Cl)c(n2)N3)CC1 [Example B311, tris(trifluoroacetate)]
Reply text: 6.84

Inquiry: What value of pIC50 has been reported for the following molecule? O=C(Nc1cc2cc(c1)Nc1nc(ncc1Cl)Nc1cccc(c1)CC2)c1nccs1 [Example B209, trifluoroacetate]
Reply text: 6.96

Inquiry: What value of pIC50 has been reported for the following molecule? COCC(=O)Nc1ccc2cc1CCc1cccc(c1)Nc1ncc(Cl)c(n1)N2 [Example B28, trifluoroacetate]
Reply text: 7.70

Inquiry: What value of pIC50 has been reported for the following molecule? CC(C)(C)OC(=O)N1CCN(Cc2ccc3cc2CCc2cccc(c2)Nc2ncc(Cl)c(n2)N3)CC1 [Example B221, bis(trifluoroacetate)]
Reply text: 7.37

Inquiry: What value of pIC50 has been reported for the following molecule? Clc1cnc2nc1Nc1cc(cc(CN3CCNCC3)c1)CCc1cccc(c1)N2 [Example B191, dihydrochloride]
Reply text: 6.42

Inquiry: What value of pIC50 has been reported for the following molecule? O=C(Nc1ncc(Cl)s1)Nc1ccc2cc1CCc1cccc(c1)Nc1ncc(Cl)c(n1)N2 [Example B252, trifluoroacetate]
Reply text: 7.21

Inquiry: What value of pIC50 has been reported for the following molecule? Oc1ccnc(Nc2ccc3cc2CCc2cccc(c2)Nc2ncc(Cl)c(n2)N3)n1 [Example B277, bis(trifluoroacetate)]
Reply text: 7.21

Inquiry: What value of pIC50 has been reported for the following molecule? O=C(Nc1ccc2cc1CCc1cncc(c1)Nc1ncc(Cl)c(n1)N2)N1CCC(c2ccccc2)C1 (stereo not shown) [Example B312, bis(trifluoroacetate)]
Reply text: 7.38

Inquiry: What value of pIC50 has been reported for the following molecule? O=C(Nc1ccc2cc1CCc1cncc(c1)Nc1ncc(Cl)c(n1)N2)N1CCN(S(=O)(=O)c2ccccc2)CC1 [Example B319, bis(trifluoroacetate)]
Reply text: 6.54

Inquiry: What value of pIC50 has been reported for the following molecule? O=C(Nc1ccc2cc1CCc1cncc(c1)Nc1ncc(Cl)c(n1)N2)N[C@H]1CCN(c2nc3cccnc3o2)C1 [Example B275, tris(trifluoroacetate)]
Reply text: 6.46

====

target: human JAK2 (a.a. 828-1132) (Homo sapiens, UniProt O60674); construct: JAK2 (a.a. 828-1132); His tag (N); made in house; host or cells: insect cells (baculovirus); experiment: In vitro JAK kinase assay (HTRF, phosphorylation of a biotinylated peptide), JAK2; type: biochemical; details: Table B1
Sequence (O60674 828-1132): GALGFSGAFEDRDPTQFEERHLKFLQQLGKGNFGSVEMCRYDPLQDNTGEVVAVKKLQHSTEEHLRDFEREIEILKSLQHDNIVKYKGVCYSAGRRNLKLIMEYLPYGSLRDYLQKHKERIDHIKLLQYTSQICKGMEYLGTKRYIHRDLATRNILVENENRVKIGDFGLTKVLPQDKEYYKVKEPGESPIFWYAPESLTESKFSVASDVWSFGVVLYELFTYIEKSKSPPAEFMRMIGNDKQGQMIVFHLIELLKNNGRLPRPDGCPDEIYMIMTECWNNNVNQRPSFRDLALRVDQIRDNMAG
Structures can show the parent of a compound that is named as a salt.
PROPERTY LABEL: log10 of IC50 (log10 of the value in nM)
Could you please treat all values as log10 of IC50 in nM?

Solved cases (5 shown):
>  <MOLECULE>
O=C(Nc1ccc2cc1CCc1cccc(c1)Nc1ncc(Cl)c(n1)N2)Nc1ccccc1OC(F)F [Example B128, trifluoroacetate]

>  <log10 of IC50>
0.26

$$$$
>  <MOLECULE>
CC(C)(C)OC(=O)NCCNC(=O)Nc1ccc2cc1CCc1cccc(c1)Nc1ncc(Cl)c(n1)N2

>  <log10 of IC50>
0.59

$$$$
>  <MOLECULE>
O=C(Nc1ccc2cc1CCc1cncc(c1)Nc1ncc(Cl)c(n1)N2)N[C@H]1CCN(c2nc3cccnc3o2)C1 [Example B275, tris(trifluoroacetate)]

>  <log10 of IC50>
2.11

$$$$
>  <MOLECULE>
Clc1cnc2nc1Nc1ccc(CN[C@@H]3CCNC3)c(c1)CCc1cccc(c1)N2 [Example B222, tris(trifluoroacetate)]

>  <log10 of IC50>
1.15

$$$$
>  <MOLECULE>
O=C(Nc1ccc2cc1CCc1cccc(c1)Nc1ncc(Cl)c(n1)N2)N[C@H]1CCN(C(=O)c2ccccn2)C1 [Example B233, bis(trifluoroacetate)]

>  <log10 of IC50>
1.04

$$$$

Inquiry: What value of log10 of IC50 has been reported for the following molecule? CC(C)(C)C(=O)Nc1ccc2cc1CCc1cccc(c1)Nc1ncc(Cl)c(n1)N2 [Example B58, trifluoroacetate]
Reply text: 1.67

Inquiry: What value of log10 of IC50 has been reported for the following molecule? Cc1ccc(NC(=O)Nc2ccc3cc2CCc2cccc(c2)Nc2ncc(Cl)c(n2)N3)cc1 [Example B92, trifluoroacetate]
Reply text: 0.72

Inquiry: What value of log10 of IC50 has been reported for the following molecule? O=C(NCCNS(=O)(=O)c1ccccc1)Nc1ccc2cc1CCc1cccc(c1)Nc1ncc(Cl)c(n1)N2 [Example B329, trifluoroacetate]
Reply text: 0.51

Inquiry: What value of log10 of IC50 has been reported for the following molecule? O=C(Nc1ccc2cc1CCc1cccc(c1)Nc1ncc(Cl)c(n1)N2)N[C@H]1CCN(C(=O)c2ccncc2)C1 [Example B234, bis(trifluoroacetate)]
Reply text: 0.81

Inquiry: What value of log10 of IC50 has been reported for the following molecule? CN(Cc1ccc2cc1CCc1cncc(c1)Nc1ncc(Cl)c(n1)N2)C(=O)C1CCN(c2ncccn2)CC1 [Example B338, tris(trifluoroacetate)]
Reply text: 2.11

Inquiry: What value of log10 of IC50 has been reported for the following molecule? Cc1cc(C(=O)Nc2ccc3cc2CCc2cccc(c2)Nc2ncc(Cl)c(n2)N3)nc(Cl)n1 [Example B280, bis(trifluoroacetate)]
Reply text: 2.65

Inquiry: What value of log10 of IC50 has been reported for the following molecule? O=C(Nc1ccc2cc1CCc1cncc(c1)Nc1ncc(Cl)c(n1)N2)N1CCN(c2ccc(F)cc2)CC1 [Example B297, tris(trifluoroacetate)]
Reply text: 1.83

Inquiry: What value of log10 of IC50 has been reported for the following molecule? COc1ccccc1C(=O)Nc1ccc2cc1CCc1cccc(c1)Nc1ncc(Cl)c(n1)N2 [Example B36, trifluoroacetate]
Reply text: 0.89

====

molecular target: human JAK3 (a.a. 781-1124) (Homo sapiens, UniProt P52333); construct: JAK3 (a.a. 781-1124); His tag (N); made in house; host or cells: insect cells (baculovirus); test: In vitro JAK kinase assay (HTRF, phosphorylation of a biotinylated peptide), JAK3; type: biochemical; settings: method AA1 (3 μM ATP) or AA2 (1000 μM ATP), not stated per value
Sequence (P52333 781-1124): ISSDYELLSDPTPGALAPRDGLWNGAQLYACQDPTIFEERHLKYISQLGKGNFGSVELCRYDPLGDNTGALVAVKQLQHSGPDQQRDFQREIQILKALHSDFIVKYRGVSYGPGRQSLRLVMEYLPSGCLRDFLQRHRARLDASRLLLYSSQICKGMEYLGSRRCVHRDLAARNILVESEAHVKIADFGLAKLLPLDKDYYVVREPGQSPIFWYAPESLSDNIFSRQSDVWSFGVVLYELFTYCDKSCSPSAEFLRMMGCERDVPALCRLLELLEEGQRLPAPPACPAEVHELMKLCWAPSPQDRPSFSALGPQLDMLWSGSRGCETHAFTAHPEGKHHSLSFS
Structures can show the parent of a compound that is named as a salt.
PROPERTY LABEL: IC50 (nM)
Enter your answer as a number in nM; do not include the unit.

Solved cases (2 shown):
>  <MOLECULE>
CN(C)C(=O)N1CCC(CC(=O)Nc2ccc3cc2CCc2cncc(c2)Nc2ncc(Cl)c(n2)N3)CC1 [Example A95, bis(trifluoroacetate)]

>  <UNIT INFO>
nM

>  <IC50>
160

$$$$
>  <MOLECULE>
CC(=O)N1CC[C@@H](C(=O)Nc2ccc3cc2CCc2cccc(c2)Nc2ncc(Cl)c(n2)N3)C1 [Example A51, trifluoroacetate]

>  <UNIT INFO>
nM

>  <IC50>
10

$$$$

Inquiry: What value of IC50 has been reported for the following molecule? O=C(Nc1ccccc1)N[C@@H](CO)C(=O)Nc1ccc2cc1CCc1cccc(c1)Nc1ncc(Cl)c(n1)N2 [Example A68, trifluoroacetate]
Reply text: 4.1
